- Tested on: CDK3;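 further: KINOMEscan kinase panel screen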
- CONDITION DESCRIPTION: concentration: 1 μM, replicates: in singlicate; n = 1
In this section we review reported %Inh values for a set of compounds.
Numeric only. Scale: %

Answered cases to consult:
| COMPOUND | %Inh (%) |
| --- | --- |
| CCn1cnc2c(NCc3ccccc3)ncnc21 [SKF-96418] | 0 |
| CS(=O)(=O)c1cccc(CNc2nc(Nc3ccc4c(c3)CCC(=O)N4)ncc2C(F)(F)F)c1 | 12 |
| COc1cccc(NC(=O)NCCNc2ccnc(Nc3ccc(F)cc3)n2)c1 [GSK1379879] | 0 |
| COc1cc(Nc2nccc(N3CCC(NS(=O)(=O)c4ccc(NC(C)=O)cc4)CC3)n2)cc(OC)c1OC [GSK1379825] | 7 |
| Cc1ccc(NC(=O)c2ccnc(N3CCCCC3)c2)cc1-c1ccc(C(=O)NCC2CC2)cc1 [GW775610] | 0 |
| CC(C)(C)c1ccc(C(=O)Nc2cn3cc(-n4ccnc4)ccc3n2)cc1 | 0 |

Entry under review: CSc1ccc(NC2=C(c3ccc(Cl)cc3)C(=O)NC2=O)cc1 [SB-317658] . Reported %Inh?
18

Would you mind doing CNc1nccc(-c2ccc3c(N)n[nH]c3c2)n1 [GSK2206003] as well?
19

Would you mind doing CCNC(=O)/C=C/c1n[nH]c2cc(Sc3ccccc3C(=O)NC)ccc12 as well?
39
